Tested on: NCI-H226 lung
procedure text: NCI-60 one-dose screen, 48 h (100 = growth as untreated, 0 = no growth, -100 = all killed)
experimental context: 10 µM unless noted
About 83,000 compounds went through this panel and 20% of them were active in at least one assay; those are over-represented in the sample as a whole.
Can you tell me growth for the items I'm about to list?
Give bare numbers, in %.

O=C(NNC(=S)NC(=O)c1ccccc1)c1ccc(OCc2nc3ccc(Cl)cc3[nH]2)cc1    -43.9
O=C(NC(=S)N1CCN(c2ncnc3c2cnn3-c2ccccc2)CC1)c1ccc(F)cc1    84.9
COc1ccc(-c2cc(-c3cc(C(C)C)c(O)cc3C)nn2-c2ccc(S(N)(=O)=O)cc2)cc1    78.6
COc1ccc(N=Nc2c(N)nn3c(-c4ccc(F)cc4)ccnc23)cc1    87.8

I need growth for every entry listed below, if you could help.
1. Cn1cc(-c2cc(N)n3nc(-c4c[nH]c5ccccc45)cc3n2)c2cc(Cl)ccc21
2. O=C(N=Nc1c(O)[nH]c2ccc(Br)cc12)c1ccc2nc(-c3ccc(Cl)cc3)[nH]c2c1
3. Cn1cc(-c2cc(N)n3nc(-c4c[nH]c5ccccc45)cc3n2)c2cc(F)ccc21
4. COC(=O)c1c(C(=O)OC)c2ccc3c4ccccc4ccc3n2c1C(=O)C(C)Br (stereo not drawn)
5. COC(=O)c1c(C(=O)OC)c2ccc3c4ccccc4ccc3n2c1C(=O)OC

A:
16.6
16.6
91.4
61.7
100

Below are 4 molecules. Give each one its growth.
1. CCCCCCCCc1ccc(C(=O)Nc2ccc(C)cc2C(=O)O)cc1
2. COc1ccc(-c2cc(C(=O)Oc3ccc(C=O)cc3OC)nn2-c2ccc(S(C)(=O)=O)cc2)cc1
3. CC[C@@]12CC(C(=O)OC)=C3Nc4cc5c(cc4[C@@]34CCN(C[C@H]3O[C@H]31)[C@@H]24)[C@@H]1[C@H](O5)[C@@H](O)[C@@]2(CC)CC(C(=O)OC)=C3Nc4cc(O)ccc4[C@@]34CCN1[C@@H]24
4. CN1C(=O)C2(C(C#N)=C(c3ccc(Cl)cc3)Nc3c2c(-c2ccccc2)nn3-c2ccccc2)c2ccccc21 (stereo not drawn)

A:
1. 84.3
2. 104
3. -50.9
4. 69.3

Please state growth for every molecule in the list that follows.
1. COC(=O)c1c(C(=O)OC)c2c3ccccc3c3ccccc3n2c1C(=O)C(C)(C)C
2. COC(=O)c1cc(C(C)=O)n2c3ccccc3c3ccccc3c12
3. O=C(N/N=C/c1ccsc1)c1[nH]c2ccc(Br)cc2c1-c1ccccc1
4. COc1ccc(-n2c(NC(=O)N3CCN(C)CC3)c(C#N)c3ccccc32)cc1
5. COc1ccc(NC(=O)NN2C(=O)c3ccccc3N(C)C2c2ccc(OC)cc2)cc1 (stereo not drawn)
6. CCCSc1nnc(-c2sc3nc4ccccc4n3c2C)o1
7. C=CC(=O)N1CCN(c2ccc3nc4c(nc3c2C(F)(F)F)C(=O)c2ncccc2C4=O)CC1
8. Cc1ccc(Nc2nnc(-c3c[nH]c4ccccc34)o2)c(C)c1

A:
85.7
61.3
-49.5
11.4
106
106
63.8
43.9

* * *

Test system: CAKI-1 renal
procedure text: NCI-60 one-dose screen, 48 h (100 = growth as untreated, 0 = no growth, -100 = all killed)
experimental context: 10 µM unless noted
This is part of a sample that, as a whole, favours compounds with a hit. Of some 83,000 tested, about 20% had one in any assay.
metric: growth (%)
Numbers only, in %.

Example results:
CC[C@]12C=CCN3CC[C@@]4(c5ccc(OC)cc5N(C)[C@H]4[C@@](O)(C(=O)OC)[C@@H]1OC(=O)CCC[P+](c1ccc(OC)cc1)(c1ccc(OC)cc1)c1ccc(OC)cc1)[C@@H]32    -93.4
Nc1nn2c(-c3cc4cc(Br)ccc4oc3=O)ccnc2c1N=Nc1ccc(S(N)(=O)=O)cc1    81
COc1ccc(SC2c3cc(OC)ccc3Oc3nc(N)c(C#N)c(N)c32)cc1 (configuration not stated)    79.1
COc1ccc(/C=C/c2nc3ccccc3n3c(-c4cccc([N+](=O)[O-])c4)nnc23)cc1    -91.1
Cc1ccc(C2CC(c3ccc(NC(=S)Nc4ccccc4)cc3)=NN2c2ccc(S(N)(=O)=O)cc2)cc1 (configuration not stated)    -10.6

Give measured growth for every item shown.
1. COc1ccc(N=Nc2c(N)nn3c(-c4cc5cc(Br)ccc5oc4=O)ccnc23)cc1
2. COc1c2c(cc3c1C(CCc1ccccc1)N(C)CC3)OCO2 (configuration not stated)
3. COc1ccc(OC)c(Cn2cc(C#N)c(N)c2C(=O)c2ccc(Br)cc2)c1
4. COc1ccc(-c2nc3ccc(-c4nnc(SCc5ccccc5)o4)cc3[nH]2)cc1
5. O=C(COc1ccc(/C=C2/C(=O)Nc3ccc(Cl)cc32)cc1)Nc1ccc(Br)cc1
6. CCOC(=O)/C(F)=C/C1CC1C(c1ccccc1)c1ccccc1 (configuration not stated)

A:
12
14.5
45.2
-77.1
-73
65.6

Provide growth values for the following items, in order.
1. CC(C)CN1C(=O)/C(=C\C(=O)c2cc3ccccc3oc2=O)c2ccccc21
2. C[C@@H](Nc1c(C#N)cnc2ccc(-c3cnc4[nH]ncc4c3)cc12)c1ccccc1

A:
[81.2, 4.1]

Could I get growth for every one of these entries?
1. COc1cc2cc(C(=O)N3C[C@@H](CCl)c4c3cc(OC(=O)N(CCC(=O)N3CCN(C)CC3)C3CCCCC3)c3ccccc43)[nH]c2c(OC)c1OC
2. C#CCN(C)CCCOc1ccc(N(CC)C(=O)c2cc(C(C)C)c(O)cc2O)cc1Cl

A:
1. -79.1
2. 9.89

Hi! Can you tell me growth for each of these compounds?
1. O=C1Nc2cc(-c3ccc(NS(=O)(=O)c4ccc(C(F)(F)F)cc4)cc3)ccc2/C1=C/c1ccc[nH]1
2. CCC1(OC(=O)c2ccccc2SSCCOC(=O)CCCCC2SCC3NC(=O)NC32)C(=O)OCc2c1cc1n(c2=O)Cc2cc3ccccc3nc2-1 (configuration not stated)
3. COc1ccc2oc(=O)c(-c3csc(N/N=C(\C)c4cc(OC)c(OC)c(OC)c4)n3)cc2c1
4. Cc1nn(-c2ccccc2)c2nc(C)n(CC(=O)N/N=C/c3cccc([N+](=O)[O-])c3)c(=O)c12
5. COc1cc(/C=C/C(=O)c2cnn(-c3cc(=O)[nH]c4ccc(Cl)cc34)c2C)cc(OC)c1OC
6. Oc1cncc(-c2ccc3ncnc(N4CCc5cc(F)c(Cl)cc54)c3c2)c1
7. Cc1[nH]nc2ccc3nc(-c4cnn(CCO)c4)c4c(c3c12)CCCC4

A:
1. 32.9
2. 10.5
3. 97.8
4. 88
5. -68.4
6. 41.5
7. 4.55
